target: binding of His-XIAP(BIR2)-avi fusion protein to GST-RIPK2 fusion protein (RIPK2/XIAP) (Homo sapiens); construct: made in house; host or cells: baculovirus infected Sf9 cells; experiment: RIPK2-XIAP binding competition PPI assay (TR-FRET); conditions: RIPK2/XIAP binding competition PPI assay; read-out: PPI IC50 bin
Sequence (O43353 1-310 limits assumed): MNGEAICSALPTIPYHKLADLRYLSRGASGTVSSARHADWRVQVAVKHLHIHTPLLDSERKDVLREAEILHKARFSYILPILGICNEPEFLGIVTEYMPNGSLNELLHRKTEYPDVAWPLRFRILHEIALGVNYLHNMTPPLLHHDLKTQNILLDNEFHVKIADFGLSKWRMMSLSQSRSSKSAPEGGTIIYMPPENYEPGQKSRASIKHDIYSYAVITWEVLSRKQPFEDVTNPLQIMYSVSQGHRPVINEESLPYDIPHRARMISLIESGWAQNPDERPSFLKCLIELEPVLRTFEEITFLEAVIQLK
pIC50: −log10 of the molar value.
readout_label: pIC50

>  <molecule>
CC(C)(C)S(=O)(=O)c1cc2c(-c3cc4cc[nH]c4nc3F)cnn2cc1OCCO

>  <readout_label>
pIC50

>  <value_observed>
> 9.00

$$$$
>  <molecule>
CC(C)(C)S(=O)(=O)c1cn2c(-c3cc(F)c(N)nc3F)cnc2cc1OC1CCN(CCO)C1 (centres unmarked)

>  <readout_label>
pIC50

>  <value_observed>
7.70 to 8.60

$$$$
>  <molecule>
CC(C)(C)S(=O)(=O)c1cn2c(-c3cc(F)c(N)nc3F)cnc2cc1OCC(F)(F)CO

>  <readout_label>
pIC50

>  <value_observed>
7.70 to 8.60

$$$$
>  <molecule>
COc1c(F)cc(-c2cnc3cc(OCCO)c(S(=O)(=O)C(C)(C)C)cn23)cc1NS(=O)(=O)c1cnn(C)c1

>  <readout_label>
pIC50

>  <value_observed>
> 9.00

$$$$
>  <molecule>
C[C@H](CO)COc1cn2ncc(-c3cc(F)c(N)nc3F)c2cc1S(=O)(=O)C(C)(C)C

>  <readout_label>
pIC50

>  <value_observed>
> 9.00

$$$$
>  <molecule>
Cn1ccc(COc2cc3ncc(-c4cc(F)c(N)nc4F)n3cc2S(=O)(=O)C(C)(C)C)n1

>  <readout_label>
pIC50

>  <value_observed>
7.70 to 8.60

$$$$
>  <molecule>
COc1cc2ncc(-c3cc(F)c(OC)c(NC(C)c4cnn(C)c4)c3)n2cc1S(=O)(=O)C(C)(C)C (single isomer, unassigned) [Example 302]

>  <readout_label>
pIC50

>  <value_observed>
> 9.00

$$$$
>  <molecule>
COc1cc2ncc(-c3cnc4nc(N)ccc4c3)n2cc1S(=O)(=O)C(C)(C)C

>  <readout_label>
pIC50

>  <value_observed>
< 7.70

$$$$
